- Condition Summary: in DMF, 288.15 K
Metric: solubility (mole fraction)

CC(=O)Nc1ccc(OC(=O)c2ccccc2OC(C)=O)cc1	0.0201

----------
- Condition Summary: in water, 313.15 K
Metric: solubility (mole fraction)

CC(=O)Nc1ccc(OC(=O)c2ccccc2OC(C)=O)cc1	6.74e-06

----------
- Condition Summary: in isopropanol, 293.15 K
Metric: solubility (mole fraction)

CC(=O)Nc1ccc(OC(=O)c2ccccc2OC(C)=O)cc1	0.000346

----------
- Condition Summary: in NMP, 288.15 K
Metric: solubility (mole fraction)

CC(=O)Nc1ccc(OC(=O)c2ccccc2OC(C)=O)cc1	0.0289

Provenance of the data: BigSolDB 2.1
